All figures here come from ChEMBL document CHEMBL4251606.

# System: HepG2
# Assay: Antiproliferative activity against human HepG2 cells after 24 hrs by MTT assay
# Format: functional, cell-based
# Stated conditions: HepG2, 24 h
pIC50: −log10 of the molar value.
Label scheme for pIC50: lower than 5 is rule not met, 5 and above is rule met.

{"Compound": "CC(C)=CC[C@@H](OC(=O)CCCC[C@@H]1CCSC(c2cccc(Br)c2)S1)C1=CC(=O)c2c(O)ccc(O)c2C1=O (stereo partly specified)", "Group label": "rule not met"}
{"Compound": "COc1ccc(C2SCC[C@@H](CCCCC(=O)O[C@H](CC=C(C)C)C3=CC(=O)c4c(O)ccc(O)c4C3=O)S2)cc1 (stereo partly specified)", "Group label": "rule not met"}
{"Compound": "CC(C)=CC[C@@H](OC(=O)CCCC[C@@H]1CCSC(c2ccc(C(C)C)cc2)S1)C1=CC(=O)c2c(O)ccc(O)c2C1=O (stereo partly specified)", "Group label": "rule not met"}
{"Compound": "CC(C)=CC[C@@H](OC(=O)CCCC[C@@H]1CCSS1)C1=CC(=O)c2c(O)ccc(O)c2C1=O", "Group label": "rule not met"}
{"Compound": "CC(C)=CC[C@@H](OC(=O)CCCC[C@@H]1CCSC(c2ccccc2)S1)C1=CC(=O)c2c(O)ccc(O)c2C1=O (stereo partly specified)", "Group label": "rule met"}
{"Compound": "CC(C)=CC[C@@H](OC(=O)CCCC[C@@H]1CCSC(C2CCCCC2)S1)C1=CC(=O)c2c(O)ccc(O)c2C1=O (stereo partly specified)", "Group label": "rule not met"}
